organism: Rattus norvegicus; assay: Anticarcinogenic activity in rat assessed as induction of tumors per day; type: functional
# reported pTD50; entries follow

{"COMPOUND": "Cc1ncc([N+](=O)[O-])n1C [DIMETRIDAZOLE]", "pTD50": 2.081}
{"COMPOUND": "O=[N+]([O-])c1ccc(-c2cnc3ccccn23)o1", "pTD50": 1.838}
{"COMPOUND": "Cc1ncc([N+](=O)[O-])n1CCO [METRONIDAZOLE]", "pTD50": 2.553}
{"COMPOUND": "O=[N+]([O-])c1ccc(-c2nnc(O)o2)o1", "pTD50": 1.64}
{"COMPOUND": "O=CNc1nc(-c2ccc([N+](=O)[O-])o2)cs1", "pTD50": 1.326}

Now for another entry.
// lookup pTD50 for `CC(=O)OC(OC(C)=O)c1ccc([N+](=O)[O-])o1` 2.635
